These measurements were taken from patent US7074789B2.

Recorded measurements of pIC50, one per entry
- system-tested: Kdr (Homo sapiens)
- Construct: Kinases are expressed as either kinase domains or full length constructs; made in house
- Sequence (P35968 20-1356, species assumed): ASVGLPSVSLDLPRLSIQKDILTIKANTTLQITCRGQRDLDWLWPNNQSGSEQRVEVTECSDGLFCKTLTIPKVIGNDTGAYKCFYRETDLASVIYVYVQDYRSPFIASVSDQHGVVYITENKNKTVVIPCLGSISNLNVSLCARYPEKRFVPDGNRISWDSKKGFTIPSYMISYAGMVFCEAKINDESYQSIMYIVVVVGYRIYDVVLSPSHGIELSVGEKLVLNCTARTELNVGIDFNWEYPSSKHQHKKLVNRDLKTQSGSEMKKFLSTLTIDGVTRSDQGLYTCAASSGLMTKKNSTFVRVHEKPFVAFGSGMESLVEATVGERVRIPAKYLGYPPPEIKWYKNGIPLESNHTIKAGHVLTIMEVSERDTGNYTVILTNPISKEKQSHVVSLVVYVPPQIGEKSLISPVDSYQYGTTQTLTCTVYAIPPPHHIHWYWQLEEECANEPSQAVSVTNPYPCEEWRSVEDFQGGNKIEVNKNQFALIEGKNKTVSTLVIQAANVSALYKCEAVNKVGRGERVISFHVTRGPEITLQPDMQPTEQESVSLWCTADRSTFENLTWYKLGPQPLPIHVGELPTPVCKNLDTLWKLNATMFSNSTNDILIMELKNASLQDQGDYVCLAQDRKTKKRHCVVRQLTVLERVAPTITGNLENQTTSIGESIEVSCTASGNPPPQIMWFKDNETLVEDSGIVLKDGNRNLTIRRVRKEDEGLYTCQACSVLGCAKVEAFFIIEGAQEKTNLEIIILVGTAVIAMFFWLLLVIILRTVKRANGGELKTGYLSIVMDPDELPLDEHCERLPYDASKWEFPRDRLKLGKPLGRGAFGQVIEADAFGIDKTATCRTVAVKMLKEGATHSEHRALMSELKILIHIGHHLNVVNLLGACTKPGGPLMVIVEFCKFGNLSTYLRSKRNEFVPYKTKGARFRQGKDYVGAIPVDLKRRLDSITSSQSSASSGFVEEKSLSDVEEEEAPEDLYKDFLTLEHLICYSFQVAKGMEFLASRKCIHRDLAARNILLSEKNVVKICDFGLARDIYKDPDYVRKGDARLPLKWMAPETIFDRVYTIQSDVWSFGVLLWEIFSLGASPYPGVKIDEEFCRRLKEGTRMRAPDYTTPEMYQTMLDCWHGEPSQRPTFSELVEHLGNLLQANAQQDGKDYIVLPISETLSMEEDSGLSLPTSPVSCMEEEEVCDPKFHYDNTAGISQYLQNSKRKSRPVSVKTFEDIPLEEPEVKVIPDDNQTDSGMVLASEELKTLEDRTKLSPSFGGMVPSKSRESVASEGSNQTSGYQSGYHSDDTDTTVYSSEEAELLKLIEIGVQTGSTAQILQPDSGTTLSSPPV
- procedure-text: Kinase inhibition assay (33P transfer), Kdr
- Format: biochemical
- measurement-setup: Table 3, class symbols; read-out: KDR-1
pIC50: −log10 of the molar value.

In the examples that follow, each entry is paired with its recorded pIC50.
- smiles-entry: "c1ccc(Cn2ncc3cc(Nc4ncnc(Nc5cccc(Cn6ccnn6)c5)n4)ccc32)cc1"
  pIC50: "5.30 to 6.07"
- smiles-entry: "CN(c1cccc(Cl)c1)c1ncnc(Nc2ccc(OCCO)cc2)n1"
  pIC50: "5.19 to 5.97"
- smiles-entry: "COc1ccc(Nc2ncnc(N(C)c3ccc(OC(F)(F)F)cc3)n2)cc1OC"
  pIC50: "5.24 to 6.02"
- smiles-entry: "COc1cc(Nc2ncnc(N(C)c3cccc(Cl)c3)n2)cc2ccccc12"
  pIC50: "< 4.94"
- smiles-entry: "CCN(CC)CCN(C)c1ncnc(Nc2ccc(OC)c(OC)c2)n1"
  pIC50: "< 4.90"
- smiles-entry: "Cc1ccc2c(c1)CCCN2c1ncnc(NCc2ccc(C(=O)O)cc2)n1"
  pIC50: "< 4.92"

Inquiry: Entry under review: Fc1ccc(CNc2ncccc2-c2ncnc(Nc3ccc4[nH]ncc4c3)n2)cc1 . Reported pIC50?
Reply text: > 6.01

Inquiry: Could you do the same for O=C(O)CNC(=O)c1ccc(Nc2ncnc(Nc3cc(-c4ccco4)[nH]n3)n2)cc1 , please?
Reply text: > 6.02

Inquiry: Could you do the same for CCOc1ccc(Nc2ncnc(N(C)c3cccc(Cl)c3)n2)cc1OCC , please?
Reply text: 5.22 to 6.00

Inquiry: Could you do the same for CCOC(=O)c1cccc(Nc2ncnc(Nc3cc(-c4ccc(C(=O)OC)cc4)n[nH]3)n2)c1 , please?
Reply text: < 5.01

Inquiry: Could you do the same for COc1ccc(Nc2ncnc(N(C)c3ccccc3)n2)cc1OC , please?
Reply text: 5.15 to 5.93

###

Target or system Tek (Homo sapiens, UniProt Q02763): recorded IC50 listed per item.

Inquiry: Entry under review: COc1cc(Nc2ncnc(Nc3ccc(C(C)C)cc3)n2)cc(OC)c1OC . Reported IC50?
Reply text: 6.07 to 8.85 µM

Inquiry: Could you do the same for CC(=O)NS(=O)(=O)c1ccc(Nc2ncnc(-n3c(N)nc4ccccc43)n2)cc1 , please?
Reply text: 5.65 to 8.25 µM

Inquiry: Could you do the same for Nc1nc2ccccc2n1-c1ncnc(Nc2ccc(OC(F)(F)F)cc2)n1 , please?
Reply text: > 11.6 µM

###

- system-tested: Lck (Homo sapiens)
- Construct: Kinases are expressed as either kinase domains or full length constructs; made in house
- Sequence (P06239 whole entry, species assumed, the tested form may be a part): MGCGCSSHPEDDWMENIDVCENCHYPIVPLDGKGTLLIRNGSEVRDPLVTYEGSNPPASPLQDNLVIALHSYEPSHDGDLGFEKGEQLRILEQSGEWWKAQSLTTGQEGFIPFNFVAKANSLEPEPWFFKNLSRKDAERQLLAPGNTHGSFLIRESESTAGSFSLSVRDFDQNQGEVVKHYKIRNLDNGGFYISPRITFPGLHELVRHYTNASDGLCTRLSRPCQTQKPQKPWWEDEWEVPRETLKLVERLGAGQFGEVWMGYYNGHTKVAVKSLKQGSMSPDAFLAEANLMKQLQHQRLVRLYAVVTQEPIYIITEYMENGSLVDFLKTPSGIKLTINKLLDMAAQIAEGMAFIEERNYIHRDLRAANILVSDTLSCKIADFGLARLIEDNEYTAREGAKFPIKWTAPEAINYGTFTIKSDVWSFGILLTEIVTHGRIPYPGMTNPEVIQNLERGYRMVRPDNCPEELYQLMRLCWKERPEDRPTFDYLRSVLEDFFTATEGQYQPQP
- procedure-text: Kinase inhibition assay (33P transfer), Lck
- Assay type: biochemical
- measurement-setup: Table 3; read-out: Lck-1
Recorded measurements of IC50, one per entry

In the examples that follow, each entry is paired with its recorded IC50.
- smiles-entry: "COc1cc(Nc2ncnc(-n3c(N)nc4ccccc43)n2)ccc1OCCn1ccnn1"
  measured-property: "IC50"
  result: "> 10.1 µM"
- smiles-entry: "COc1ncnc(Nc2cc(OC)c(OC)c(OC)c2)n1"
  measured-property: "IC50"
  result: "> 15.4 µM"

Would you kindly look at the next entry?
Inquiry: Observed IC50 on Lck (Homo sapiens) for COc1cc(Nc2ncnc(Nc3cccc(F)c3)n2)cc(OC)c1OC , please.
Reply text: < 1.08 µM
